target: UniProtKB P53634; experiment: DPP1 activity inhibition test on U937 cells; assay type: cell-based; conditions: U-937, 50 nM compound, substrate h-Gly-phe-AFC
Kindly state inhibition at 0.05 µM for each of the entries shown.

Give inhibition at 0.05 µM for each listed item.
1. CN1CCC2(C=Cc3ccc(-c4ccc(C[C@@H](C#N)NC(=O)[C@@H]5CNCCCO5)c(F)c4)cc32)CC1
2. CC1(C)OC(=O)c2ccc(-c3ccc(C[C@@H](C#N)NC(=O)[C@@H]4CNCCCO4)cc3)cc21

75 to 100%
75 to 100%

Give inhibition at 0.05 µM for each listed item.
1. N#C[C@H](Cc1ccc(-c2ccc3c(c2)COC3=O)cc1F)NC(=O)[C@@H]1CNCCCO1
2. CN1CCC2(C=Cc3cc(-c4ccc(C[C@@H](C#N)NC(=O)[C@@H]5CNCCCO5)c(F)c4)ccc32)CC1
3. CN1CCC2(CC1)OC(=O)c1ccc(-c3ccc(C[C@@H](C#N)NC(=O)[C@@H]4CNCCCO4)cc3)nc12
4. N#C[C@H](Cc1ccc(-c2ccc3c(c2)C2(CS(=O)(=O)C2)OC3=O)cc1F)NC(=O)[C@@H]1CNCCCO1
5. Cn1c(=O)oc2ccc(-c3ccc(C[C@@H](C#N)NC(=O)[C@@H]4CNCC5(COC5)CO4)c(F)c3)cc21

75 to 100%
75 to 100%
75 to 100%
< 30%
< 30%

---

Kindly state inhibition at 0.05 µM for each of the entries shown.
target: DPP1 (Homo sapiens (Human), UniProt P53634); experiment: DPP1 activity inhibition test on U937 cells; assay type: cell-based; conditions: U-937, 50 nM compound, substrate h-Gly-phe-AFC
Sequence (P53634 25-463): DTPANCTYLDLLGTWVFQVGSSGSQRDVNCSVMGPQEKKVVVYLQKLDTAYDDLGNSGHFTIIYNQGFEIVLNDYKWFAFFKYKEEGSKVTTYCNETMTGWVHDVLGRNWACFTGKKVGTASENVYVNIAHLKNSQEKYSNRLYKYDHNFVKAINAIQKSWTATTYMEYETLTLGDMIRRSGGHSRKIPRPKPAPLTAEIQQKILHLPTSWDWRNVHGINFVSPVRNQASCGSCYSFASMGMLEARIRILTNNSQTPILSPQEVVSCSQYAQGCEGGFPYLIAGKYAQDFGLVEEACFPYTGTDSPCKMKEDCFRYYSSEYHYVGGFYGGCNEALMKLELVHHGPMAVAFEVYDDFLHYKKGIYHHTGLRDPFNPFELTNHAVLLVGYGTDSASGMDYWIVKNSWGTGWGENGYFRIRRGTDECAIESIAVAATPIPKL

Some solved cases for reference:
molecule: Cn1c(=O)oc2ccc(-c3ccc(C[C@@H](C#N)NC(=O)[C@@H]4CNCCCO4)cc3)cc21 [AZD7986, Brensocatib, reference compound]
target-of-assay: DPP1 (Homo sapiens (Human), UniProt P53634)
recorded-result: 75 to 100%
--
molecule: N#C[C@H](Cc1ccc(-c2ccc3oc(=O)n(C4COC4)c3c2)cc1F)NC(=O)[C@@H]1CNCCCO1
target-of-assay: DPP1 (Homo sapiens (Human), UniProt P53634)
recorded-result: 30 to 75%
--
molecule: N#C[C@H](Cc1ccc(-c2ccc3c(c2)CCC3=O)cc1)NC(=O)[C@@H]1CNCCCO1
target-of-assay: DPP1 (Homo sapiens (Human), UniProt P53634)
recorded-result: 75 to 100%

As a next step, examine the molecule that follows.
The measured inhibition at 0.05 µM associated with CN1CCC2(C1)OC(=O)c1ccc(-c3ccc(C[C@@H](C#N)NC(=O)[C@@H]4CNCCCO4)cc3)cc12 (stereo partly shown) reads 30 to 75%

---

target: DPP1 (Homo sapiens (Human)); assay: DPP1 activity inhibition test on U937 cells; format: cell-based; conditions: U-937, 5 nM compound, substrate h-Gly-phe-AFC
recorded-endpoint: inhibition at 0.005 µM

Some solved cases for reference:
molecule: N#C[C@H](Cc1ccc(-c2ccc3oc(=O)n(C4COC4)c3c2)cc1F)NC(=O)[C@@H]1CNCCCO1 [Compound D99]
inhibition at 0.005 µM: < 30%
//
molecule: N#C[C@H](Cc1ccc(-c2ccc3oc(=O)n(C4CC(O)C4)c3c2)cc1F)NC(=O)[C@@H]1CNCCCO1 (stereo partly drawn) [Compound D69]
inhibition at 0.005 µM: < 30%

The measured inhibition at 0.005 µM associated with CN1CCc2nc(-c3ccc(C[C@@H](C#N)NC(=O)[C@@H]4CNCCCO4)cc3)sc2C1 [Compound D18] reads < 30%

---

Kindly state pIC50 for each of the entries shown.
Target: DPP1 (Homo sapiens (Human))
Test: DPP1 activity inhibition test on U937 cells
Conditions: intracellular enzyme activity, substrate h-Gly-phe-AFC
Procedure: After incubation at 37° C. for 1 h, add h-Gly-phe-AFC (10 μL) to each well and start reaction.
Give bare numbers, as −log10 of the molar value.

Some solved cases for reference:
compound: N#C[C@H](Cc1ccc(-c2ccc3c(c2)C2(CCN(C4COC4)C2)OC3)cc1F)NC(=O)[C@@H]1CNCCCO1 (some centres unmarked)
recorded-endpoint: pIC50
recorded-result: 7.89

compound: C[C@H]1OC(=O)c2ccc(-c3ccc(C[C@@H](C#N)NC(=O)[C@@H]4CNCCCO4)c(F)c3)cc21
recorded-endpoint: pIC50
recorded-result: 8.42

compound: CC1(C)OC(=O)c2ccc(-c3ccc(C[C@@H](C#N)NC(=O)[C@@H]4CNCCCO4)cc3)cc21
recorded-endpoint: pIC50
recorded-result: 7.82

compound: N#C[C@H](Cc1ccc(-c2ccc3c(c2)COC3=O)cc1F)NC(=O)[C@@H]1CNCC2(CC2)CO1
recorded-endpoint: pIC50
recorded-result: 8.54

compound: CN1CC(n2c(=O)oc3ccc(-c4ccc(C[C@@H](C#N)NC(=O)[C@@H]5CNCCCO5)c(F)c4)cc32)C1
recorded-endpoint: pIC50
recorded-result: 7.49

compound: N#C[C@H](Cc1ccc(-c2ccc3sc(=O)n(C4COC4)c3c2)cc1F)NC(=O)[C@@H]1CNCCCO1
recorded-endpoint: pIC50
recorded-result: 8.37

compound: N#C[C@H](Cc1ccc(-c2ccc3c(c2)CCC3=O)cc1F)NC(=O)[C@@H]1CNCCCO1
recorded-endpoint: pIC50
recorded-result: 8.34

compound: N#C[C@H](Cc1ccc(-c2ccc3oc(=O)n(C(F)F)c3c2)cc1)NC(=O)[C@@H]1CNCCCO1
recorded-endpoint: pIC50
recorded-result: 8.28

compound: Cn1c(=O)oc2ccc(-c3ccc(C[C@@H](C#N)NC(=O)[C@@H]4CNCC5(CC5)CO4)nn3)cc21
recorded-endpoint: pIC50
recorded-result: 7.92

compound: Cn1c(=O)oc2ccc(-c3ccc(C[C@@H](C#N)NC(=O)[C@@H]4CNC[C@@H](F)CO4)c(F)c3)cc21
recorded-endpoint: pIC50
recorded-result: 8.19

Give pIC50 for each listed item.
1. CCN1CCC(=O)c2ccc(-c3ccc(C[C@@H](C#N)NC(=O)[C@@H]4CNCCCO4)c(F)c3)cc21
2. CN1CC2(C1)OC(=O)c1ccc(-c3ccc(C[C@@H](C#N)NC(=O)[C@@H]4CNCCCO4)c(F)c3)cc12
3. C[C@@H]1CNC[C@@H](C(=O)N[C@H](C#N)Cc2ccc(-c3ccc4oc(=O)n(C)c4c3)cc2F)OC1

8.47
7.88
8.37

---

target: DPP1 (Homo sapiens (Human)); assay: DPP1 activity inhibition test on U937 cells; format: cell-based; conditions: U-937, 50 nM compound, substrate h-Gly-phe-AFC
Kindly state inhibition at 0.05 µM for each of the entries shown.

Give inhibition at 0.05 µM for each listed item.
1. N#C[C@H](Cc1ccc(-c2ccc3c(c2)C2(CCN(C4COC4)C2)OC3)cc1F)NC(=O)[C@@H]1CNCCCO1 (some centres unmarked) [Compound D87]
2. CO/N=C1\CCc2cc(-c3ccc(C[C@@H](C#N)NC(=O)[C@@H]4CNCCCO4)c(F)c3)ccc21 [Compound D65]
3. N#C[C@H](Cc1ccc(-c2cnc3c(c2)CCC3=O)cc1F)NC(=O)[C@@H]1CNCCCO1 [Compound D113]
4. C[C@H]1OC(=O)c2ccc(-c3ccc(C[C@@H](C#N)NC(=O)[C@@H]4CNCCCO4)c(F)c3)cc21 [Compound D75]

1: 75 to 100%; 2: 30 to 75%; 3: < 30%; 4: 75 to 100%

Give inhibition at 0.05 µM for each listed item.
1. N#C[C@H](Cc1ccc(-c2ccc3c(c2)N2CC(=O)N=C2O3)cc1F)NC(=O)[C@@H]1CNCCCO1 [Compound D81]
2. N#C[C@H](Cc1ccc(-c2cc3c(cn2)C(=O)CC3)cc1F)NC(=O)[C@@H]1CNCCCO1 [Compound D112]
3. Cn1c(=O)oc2ccc(-c3ccc(C[C@@H](C#N)NC(=O)[C@@H]4CNCC5(CC5)CO4)c(F)c3)cc21 [Compound D46]
4. C[C@@H]1OC(=O)c2ccc(-c3ccc(C[C@@H](C#N)NC(=O)[C@@H]4CNCCCO4)c(F)c3)cc21 [Compound D74]
5. N#C[C@H](Cc1ccc(-c2ccc3c(c2)C(=O)CC3)cc1)NC(=O)[C@@H]1CNCCCO1 [Compound D43]

1. 30 to 75%
2. 30 to 75%
3. 75 to 100%
4. 75 to 100%
5. 30 to 75%

Give inhibition at 0.05 µM for each listed item.
1. N#C[C@H](Cc1ccc(-c2ccc3oc(=O)n(CC4COC4)c3c2)cc1F)NC(=O)[C@@H]1CNCCCO1 [Compound D94]
2. N#C[C@H](Cc1ccc(-c2ccc3oc(=O)n(C4CCN(C5COC5)CC4)c3c2)cc1F)NC(=O)[C@@H]1CNCCCO1 [Compound D82]
3. Cn1c(=O)oc2ccc(-c3ccc(C[C@@H](C#N)NC(=O)[C@@H]4CNCC5(CC5)CO4)nc3)cc21 [Compound D47]
4. C[C@@H](O)Cn1c(=O)oc2ccc(-c3ccc(C[C@@H](C#N)NC(=O)[C@@H]4CNCCCO4)cc3)cc21 [Compound D34]
5. CN1CCC2(CC1)OC(=O)c1ccc(-c3ccc(C[C@@H](C#N)NC(=O)[C@@H]4CNCCCO4)c(F)c3)cc12 [Compound D104]

["< 30%", "< 30%", "75 to 100%", "30 to 75%", "< 30%"]
